B1: ELF3 (parent)
chain: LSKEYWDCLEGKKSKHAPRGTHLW

Variants of: B1
Experiment: protein stability index of a GFP-peptide fusion (GPS, HEK-293T) (PSI 1-6); higher = more stable;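 also: lentivirally expressed fusions sorted by FACS into six bins by GFP to DsRed ratio, PSI derived from sequencing read proportions per bin multiplied by bin number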
Conditions: c terminus: a fixed tail appended
Parameter threshold = 3. Response is criterion met when protein stability index meets or exceeds it, else criterion not met.

- MUTATION_LIST: "K15G"
  CLASS_LABEL: "criterion not met"
- MUTATION_LIST: "L9W"
  CLASS_LABEL: "criterion not met"
- MUTATION_LIST: "K15Q"
  CLASS_LABEL: "criterion not met"
- MUTATION_LIST: "S2C"
  CLASS_LABEL: "criterion not met"
- MUTATION_LIST: "K15E"
  CLASS_LABEL: "criterion not met"
- MUTATION_LIST: "D7Y"
  CLASS_LABEL: "criterion not met"
- MUTATION_LIST: "K3L"
  CLASS_LABEL: "criterion not met"
- MUTATION_LIST: "L23H"
  CLASS_LABEL: "criterion met"
- MUTATION_LIST: "Y5Q"
  CLASS_LABEL: "criterion not met"
- MUTATION_LIST: "A17W"
  CLASS_LABEL: "criterion not met"

Given the entry `Y5F` , answer whether its protein stability index meets or surpasses 3.
criterion met

Check if protein stability index >= 3 (inclusive). Item: `C8G`
criterion met

Item `L23I` with protein stability index of 3 or above?
criterion not met

Test whether the variant `P18S` records protein stability index of 3 or higher.
criterion met

For this variant, is measured protein stability index 3 or higher? `D7G`
criterion not met

Test whether the variant `S2N` records protein stability index of 3 or higher.
criterion met

Quick check, protein stability index >= 3? `G20I`
criterion not met

Tell me whether protein stability index is at least 3 here: `T21M`
criterion not met

Check the entry `K13M` : does protein stability index equal or exceed 3?
criterion not met

Is it the case that `L1G` has protein stability index reaching or exceeding 3?
criterion met
